Assay: TOX21_p53_BLA_p4_viability: Viability Assessment in the Tox21 HCT-116 p53 Agonism Beta-lactamase Assay, Phase 4 (AID 2283597);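 note: hits lower the luminescence signal meaning cytotoxicity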
Text: TOX21_p53_BLA_p4 is a cell-based, single-readout assay that uses HCT116, a human intestinal cell line, […] in a 1536-well plate.TOX21_p53_BLA_p4_viability is an assay readout measuring cellular ATP content and detected with CellTiter-Glo Luciferase-coupled ATP quantitation.TOX21_p53_BLA_p4_viability used a type of viability reporter where loss-of-signal activity can be used to understand changes in the cell viability. […]
Results filed as inconclusive are left out. Calls of active or inactive are those of the source. Rule for the calls: active = hit-call score of the fitted dose curve at least 0.9, where 1 is the maximum; inconclusive = response in the unintended direction; inactive = score below 0.9.
Choose one outcome from this list and give only that: active, inactive

Previously resolved entries follow.
{"columns": ["compound", "category"],
 "data": [
  ["CC(C)(C)c1cc(/C=C2\\SC(N)=NC2=O)cc(C(C)(C)C)c1O", "active"],
  ["CCCCCc1ccc(N)cc1", "inactive"],
  ["CC(C)(C)c1csc(-c2cc3cc(OCc4ccccc4CC(=O)O)ccc3o2)n1", "active"],
  ["CO[C@H]1/C=C/O[C@@]2(C)Oc3c(C)c(O)c4c(O)c(c(/C=N/N5CCN(C)CC5)c(O)c4c3C2=O)NC(=O)/C(C)=C\\C=C\\[C@H](C)[C@H](O)[C@@H](C)[C@@H](O)[C@@H](C)[C@H](OC(C)=O)[C@@H]1C", "inactive"]
]}

Identify the outcome logged in this assay for the compound shown: "OCCO"
inactive

Identify the outcome logged in this assay for the compound shown: "NCc1cccc(C2CCN(C(=O)c3ccc(C#Cc4ccccc4F)o3)CC2)c1"
active

Identify the outcome logged in this assay for the compound shown: CN1C(=O)N(c2ccccc2Br)Cc2cnc(Nc3ccc4c(c3)OCC(CO)O4)nc21 (stereo not given)
active

Identify the outcome logged in this assay for the compound shown: "O=C(Nc1ccc(Cl)cc1)Nc1ccc(Cl)c(Cl)c1"
inactive

Identify the outcome logged in this assay for the compound shown: "Cc1ncc(CO)c(CO)c1O"
inactive

Identify the outcome logged in this assay for the compound shown: "O=C1c2ccccc2C(=O)N1CCc1noc(-c2ccc(CN3CCCCCC3)s2)n1"
inactive

====

Read-out: Insulin-like growth factor-binding protein 1 (IGFBP1), IGFBP1 (gene 3484)
Assay: LTEA_HepaRG_IGFBP1: Life Technologies and Expression Analysis (LTEA) Assay for Insulin-like growth factor-binding protein 1 (IGFBP1) using HepaRG (AID 2283508)
Details: mRNA level, 48 h; actives raise or lower the signal
Active and inactive are the calls of the source. How the source made its calls: active means hit-call score of the fitted dose curve at least 0.9, where 1 is the maximum; inactive means score below 0.9.
Choose one outcome from this list and give only that: YES for active, NO for inactive

{"columns": ["compound", "category"],
 "data": [
  ["O=C(O)c1ccccc1C(=O)OCc1ccccc1", "NO"]
]}

Identify the outcome logged in this assay for the compound shown: "O=C(OCCCCCCOC(=O)c1ccccc1)c1ccccc1"
NO

Identify the outcome logged in this assay for the compound shown: "CC1(C)NC(=O)N(c2ccc([N+](=O)[O-])c(C(F)(F)F)c2)C1=O"
YES

Identify the outcome logged in this assay for the compound shown: "OCCO"
NO

Identify the outcome logged in this assay for the compound shown: OC12N=C(c3ccccc3)SC1Cc1cc(Cl)ccc12 (centres undefined)
YES

====

Assay: Tanguay_ZF_120hpf_TRUN_legacy: (Legacy) Oregon State University Tanguay Lab 120 Hour Post-fertilization zebrafish Assay for Truncated Body (AID 2283655)
Records with an inconclusive call do not appear. Active and inactive are the calls of the source. Rule for the calls: active = hit-call score of the fitted dose curve at least 0.9, where 1 is the maximum; inconclusive = response in the unintended direction; inactive = score below 0.9.
Choose one outcome from this list and give only that: 1 (active), -1 (inactive)

Previously resolved entries follow.
{"columns": ["compound", "category"],
 "data": [
  ["CCCCCCCCCCCO", -1],
  ["Oc1ccc2ccccc2c1", 1],
  ["COc1ccc2cc(S(=O)(=O)N[C@H](CC(=O)N[C@H](Cc3ccc(CN4[C@H](C)CCC[C@@H]4C)cc3)C(=O)N(C)C(C)C)c3ccc4c(c3)OCO4)ccc2c1", -1],
  ["CC(C)(C)c1csc(-c2cc3cc(OCc4ccccc4CC(=O)O)ccc3o2)n1", -1],
  ["O=C(O)Cn1c(=O)n(Cc2ccc(Br)cc2F)c(=O)c2ccc(Cl)cc21", -1],
  ["CCCCCCCCCC(=O)O", -1]
]}

Identify the outcome logged in this assay for the compound shown: CC(O)CC(C)(C)O (stereo unspecified)
-1

Identify the outcome logged in this assay for the compound shown: "O=c1[nH]sc2ccccc12"
-1

Identify the outcome logged in this assay for the compound shown: "CCCC(=O)OCCC(C)C"
-1

Identify the outcome logged in this assay for the compound shown: "Cc1oc2c(NC(=O)c3c(Cl)cccc3Cl)cccc2c1C(C)(C)O"
-1

Identify the outcome logged in this assay for the compound shown: "Cc1c2ccccc2c(C)c2c1ccc1ccccc12"
-1

Identify the outcome logged in this assay for the compound shown: "NCc1cccc(C2CCN(C(=O)c3ccc(C#Cc4ccccc4F)o3)CC2)c1"
-1

Identify the outcome logged in this assay for the compound shown: "CC(C)(C)c1cc(/C=C2\SC(N)=NC2=O)cc(C(C)(C)C)c1O"
-1

Identify the outcome logged in this assay for the compound shown: "Cc1cc2c(cc1C(F)(F)F)N(C(=O)Nc1ccc(Oc3cccnc3C)nc1)CC2"
-1

Identify the outcome logged in this assay for the compound shown: "CCCCCCCCCCCC[N+](C)(C)C"
-1

Identify the outcome logged in this assay for the compound shown: "CC1=CC(=O)/C(=C(/C)O)C(=O)O1"
-1

Identify the outcome logged in this assay for the compound shown: "CCCCCCCCN(C)CCCCCCCC"
-1

Identify the outcome logged in this assay for the compound shown: CN1C(=O)N(c2ccccc2Br)Cc2cnc(Nc3ccc4c(c3)OCC(CO)O4)nc21 (stereo unspecified)
-1

====

Experiment: CEETOX_H295R_CORTIC: CeeTox H295R High-throughput Steroidogenesis Assay for Corticosterone (CORTIC) (AID 2283437);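 note: corticosterone secreted into medium quantified by mass spectrometry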;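 for AC50: human H295R adrenal cells prestimulated with forskolin before chemical exposure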
Settings: actives raise or lower the signal
Calls of active or inactive are those of the source. Rule for the calls: active = hit-call score of the fitted dose curve at least 0.9, where 1 is the maximum; inactive = score below 0.9.
measured-property: AC50

Example entries and their recorded answers appear below.
{"columns": ["compound", "measured-property", "recorded-result"],
 "data": [
  ["NC(=O)c1nc(-c2cccc(-c3cc(F)ccc3OCC(F)(F)C(F)(F)F)c2)n[nH]1", "AC50", "inactive"],
  ["COc1cccc([C@H](O)C2CCN(CCc3ccc(F)cc3)CC2)c1OC", "AC50", "1220 nM (active)"],
  ["Cc1c2ccccc2c(C)c2c1ccc1ccccc12", "AC50", "inactive"],
  ["CC(=O)N1CCN(c2ccc(OC[C@H]3CO[C@](Cn4ccnc4)(c4ccc(Cl)cc4Cl)O3)cc2)CC1", "AC50", "1770 nM (active)"]
]}

If you can, please state the reported AC50 value of "Cc1oc2c(NC(=O)c3c(Cl)cccc3Cl)cccc2c1C(C)(C)O" .
inactive

If you can, please state the reported AC50 value of "Oc1ccc2ccccc2c1" .
inactive

====

Read-out: E-selectin (Homo sapiens) (UniProt P16581)
Sequence (P16581 whole entry, looked up): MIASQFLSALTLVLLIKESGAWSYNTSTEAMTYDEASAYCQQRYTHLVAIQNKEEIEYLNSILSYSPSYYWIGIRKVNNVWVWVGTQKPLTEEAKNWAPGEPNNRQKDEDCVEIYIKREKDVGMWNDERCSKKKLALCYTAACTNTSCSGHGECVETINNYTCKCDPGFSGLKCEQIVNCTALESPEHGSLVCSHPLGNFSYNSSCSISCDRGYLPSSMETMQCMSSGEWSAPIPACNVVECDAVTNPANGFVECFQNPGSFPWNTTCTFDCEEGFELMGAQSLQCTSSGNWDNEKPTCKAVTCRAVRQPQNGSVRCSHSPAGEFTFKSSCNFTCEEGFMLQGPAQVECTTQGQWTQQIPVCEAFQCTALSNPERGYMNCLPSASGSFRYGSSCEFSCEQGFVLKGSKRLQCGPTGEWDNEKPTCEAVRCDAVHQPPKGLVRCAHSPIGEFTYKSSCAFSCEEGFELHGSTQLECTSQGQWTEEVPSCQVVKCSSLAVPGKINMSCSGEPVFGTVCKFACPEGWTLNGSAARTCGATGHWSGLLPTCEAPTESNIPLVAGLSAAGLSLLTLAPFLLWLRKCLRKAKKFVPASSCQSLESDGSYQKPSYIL
Assay: BSK_SAg_Eselectin: BioMAP Diversity Plus: SAg Assay for Eselectin Biomarker Activity (AID 2283091)
Conditions: primary human HUVEC with PBMC; actives raise or lower the signal
Calls of active or inactive are those of the source. Rule for the calls: active = hit-call score of the fitted dose curve at least 0.9, where 1 is the maximum; inactive = score below 0.9.
Choose one outcome from this list and give only that: active, inactive

Previously resolved entries follow.
{"columns": ["molecule", "category"],
 "data": [
  ["CN1C(=O)CC[C@H]1c1cccnc1", "inactive"],
  ["Cc1cccc2ccccc12", "inactive"],
  ["CCCCOC(=O)CC(CC(=O)OCCCC)(OC(C)=O)C(=O)OCCCC", "inactive"],
  ["Cc1ccc2oc(CN(Cc3ccccc3)C(=O)Nc3c(F)cc(F)cc3F)c(-c3ccc(Cl)cc3)c2c1", "inactive"]
]}

Identify the outcome logged in this assay for the molecule shown: "Clc1ccccc1C(c1ccccc1)(c1ccccc1)n1ccnc1"
active

Identify the outcome logged in this assay for the molecule shown: "Clc1cc(Cl)c2c(c1)N=C1CCCCCN1C2"
inactive

Identify the outcome logged in this assay for the molecule shown: "NCc1cccc(C2CCN(C(=O)c3ccc(C#Cc4ccccc4F)o3)CC2)c1"
active

Identify the outcome logged in this assay for the molecule shown: "Oc1ccc2ccccc2c1"
active

Identify the outcome logged in this assay for the molecule shown: "CCO[Si](CCCNC(N)=O)(OCC)OCC"
inactive

Identify the outcome logged in this assay for the molecule shown: "CCCC(=O)OCCC(C)C"
inactive

Identify the outcome logged in this assay for the molecule shown: "Cc1cc2c(cc1C(F)(F)F)N(C(=O)Nc1ccc(Oc3cccnc3C)nc1)CC2"
inactive

Identify the outcome logged in this assay for the molecule shown: CC(O)CC(C)(C)O (configuration not stated)
inactive

Identify the outcome logged in this assay for the molecule shown: "c1ccc2n[nH]nc2c1"
inactive

Identify the outcome logged in this assay for the molecule shown: "CC(C)(C)c1csc(-c2cc3cc(OCc4ccccc4CC(=O)O)ccc3o2)n1"
active

Identify the outcome logged in this assay for the molecule shown: "NC(=O)c1nc(-c2cccc(-c3cc(F)ccc3OCC(F)(F)C(F)(F)F)c2)n[nH]1"
active
